- study.target: MAP/microtubule affinity-regulating kinase 4 (Homo sapiens, UniProt Q96L34)
- Sequence (Q96L34 whole entry): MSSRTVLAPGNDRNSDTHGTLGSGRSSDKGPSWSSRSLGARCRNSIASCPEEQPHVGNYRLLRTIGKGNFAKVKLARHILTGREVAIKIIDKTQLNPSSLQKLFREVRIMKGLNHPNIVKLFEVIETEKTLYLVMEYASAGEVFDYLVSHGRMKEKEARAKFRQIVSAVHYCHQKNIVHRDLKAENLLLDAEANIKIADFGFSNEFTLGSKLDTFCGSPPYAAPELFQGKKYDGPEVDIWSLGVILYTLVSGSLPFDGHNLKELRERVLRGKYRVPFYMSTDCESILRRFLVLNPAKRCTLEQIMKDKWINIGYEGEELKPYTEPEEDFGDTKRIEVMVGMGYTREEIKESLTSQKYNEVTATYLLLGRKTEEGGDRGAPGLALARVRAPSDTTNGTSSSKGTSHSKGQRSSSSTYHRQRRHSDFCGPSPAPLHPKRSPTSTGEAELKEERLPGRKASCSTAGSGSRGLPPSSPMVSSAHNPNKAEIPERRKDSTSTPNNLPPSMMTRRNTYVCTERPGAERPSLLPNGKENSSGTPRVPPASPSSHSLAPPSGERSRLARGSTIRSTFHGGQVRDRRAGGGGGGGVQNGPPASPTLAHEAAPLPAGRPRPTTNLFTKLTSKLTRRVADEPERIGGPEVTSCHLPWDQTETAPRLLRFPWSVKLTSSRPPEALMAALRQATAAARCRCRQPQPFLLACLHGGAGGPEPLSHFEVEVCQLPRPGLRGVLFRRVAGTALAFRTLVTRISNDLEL
- assay.overview: Displacement of tracer K5 from NLuc fused MARK4 (unknown origin) expressed in HEK293 cells by NanoBRET assay
Entries and their IC50

Query block: Return IC50 for the following molecule: `NS(=O)(=O)c1ccc(CNc2ccnc(Nc3cccc(NC(=O)N4CCCC4)c3)n2)cc1`
Result block: > 10 µM

Query block: Please give the documented IC50 of `O=C(NCCCNc1nc(Nc2cccc(NC(=O)N3CCCC3)c2)ncc1C1CC1)C1CCC1`
Result block: 0.509 µM

Query block: Fill in reported IC50 for this entry: `Cc1nn(CC(F)(F)F)cc1Nc1nccc(NCCCNC(=O)C2CCC2)n1`
Result block: > 10 µM

Query block: Fill in reported IC50 for this entry: `NS(=O)(=O)c1ccc(CNc2nc(Nc3cccc(CN4CCOCC4)c3)ncc2Br)cc1`
Result block: > 10 µM

Query block: Using known records, supply IC50 for `Cc1nn(CC(F)(F)F)cc1Nc1ncc(C2CC2)c(NCCc2c[nH]cn2)n1`
Result block: > 10 µM

Query block: Read the entry `c1cc(CN2CCOCC2)cc(Nc2ncc(C3CC3)c(NCCc3c[nH]cn3)n2)c1` and write its reported IC50.
Result block: 0.808 µM

Query block: // Input: `Cc1nn(CC(F)(F)F)cc1Nc1ncc(C2CC2)c(NCc2ccc(S(N)(=O)=O)cc2)n1` . Output its IC50 only.
Result block: > 10 µM

Query block: // fetch IC50 given entry `Cc1nn(CC(F)(F)F)cc1Nc1ncc(Br)c(NCCc2cnc[nH]2)n1`
Result block: 8.45 µM

Query block: Check the records and state IC50 for `NS(=O)(=O)c1ccc(CNc2nc(Nc3cccc(CN4CCOCC4)c3)ncc2C2CC2)cc1`
Result block: > 10 µM

Query block: Kindly indicate its recorded IC50. Item: `O=C(NCCCNc1ccnc(Nc2cccc(NC(=O)N3CCCC3)c2)n1)C1CCC1`
Result block: > 10 µM

Query block: Give the measured IC50 for `NS(=O)(=O)c1ccc(CNc2nc(Nc3cccc(NC(=O)N4CCCC4)c3)ncc2Br)cc1`
Result block: > 10 µM

Query block: Return the recorded IC50 value; entry: `Cc1nn(CC(F)(F)F)cc1Nc1ncc(Br)c(NCCCNC(=O)C2CCC2)n1`
Result block: 3.54 µM

Query block: Retrieve IC50 measured for `c1cc(CN2CCOCC2)cc(Nc2nccc(NCCc3cnc[nH]3)n2)c1` and print it.
Result block: > 10 µM

Query block: Let me know recorded IC50 for `NS(=O)(=O)c1ccc(CNc2nc(Nc3cccc(NC(=O)N4CCCC4)c3)ncc2C2CC2)cc1` , thanks.
Result block: > 10 µM

Query block: Write down IC50 measured for item `Cc1nn(CC(F)(F)F)cc1Nc1ncc(C2CC2)c(NCCCNC(=O)C2CCC2)n1`
Result block: > 10 µM

Query block: Name the recorded IC50 of the item `NS(=O)(=O)c1ccc(CNc2ccnc(Nc3cccc(CN4CCOCC4)c3)n2)cc1` in your answer.
Result block: > 10 µM

Query block: State its IC50 for this molecule: `Cc1nn(CC(F)(F)F)cc1Nc1nccc(NCc2ccc(S(N)(=O)=O)cc2)n1`
Result block: > 10 µM

Query block: Answer with reported IC50 of `Brc1cnc(Nc2cccc(CN3CCOCC3)c2)nc1NCCc1c[nH]cn1`
Result block: 0.214 µM

----------
- study.target: Receptor tyrosine-protein kinase erbB-2 (Homo sapiens, UniProt P04626)
- Sequence (P04626 whole entry, the tested form may be a part): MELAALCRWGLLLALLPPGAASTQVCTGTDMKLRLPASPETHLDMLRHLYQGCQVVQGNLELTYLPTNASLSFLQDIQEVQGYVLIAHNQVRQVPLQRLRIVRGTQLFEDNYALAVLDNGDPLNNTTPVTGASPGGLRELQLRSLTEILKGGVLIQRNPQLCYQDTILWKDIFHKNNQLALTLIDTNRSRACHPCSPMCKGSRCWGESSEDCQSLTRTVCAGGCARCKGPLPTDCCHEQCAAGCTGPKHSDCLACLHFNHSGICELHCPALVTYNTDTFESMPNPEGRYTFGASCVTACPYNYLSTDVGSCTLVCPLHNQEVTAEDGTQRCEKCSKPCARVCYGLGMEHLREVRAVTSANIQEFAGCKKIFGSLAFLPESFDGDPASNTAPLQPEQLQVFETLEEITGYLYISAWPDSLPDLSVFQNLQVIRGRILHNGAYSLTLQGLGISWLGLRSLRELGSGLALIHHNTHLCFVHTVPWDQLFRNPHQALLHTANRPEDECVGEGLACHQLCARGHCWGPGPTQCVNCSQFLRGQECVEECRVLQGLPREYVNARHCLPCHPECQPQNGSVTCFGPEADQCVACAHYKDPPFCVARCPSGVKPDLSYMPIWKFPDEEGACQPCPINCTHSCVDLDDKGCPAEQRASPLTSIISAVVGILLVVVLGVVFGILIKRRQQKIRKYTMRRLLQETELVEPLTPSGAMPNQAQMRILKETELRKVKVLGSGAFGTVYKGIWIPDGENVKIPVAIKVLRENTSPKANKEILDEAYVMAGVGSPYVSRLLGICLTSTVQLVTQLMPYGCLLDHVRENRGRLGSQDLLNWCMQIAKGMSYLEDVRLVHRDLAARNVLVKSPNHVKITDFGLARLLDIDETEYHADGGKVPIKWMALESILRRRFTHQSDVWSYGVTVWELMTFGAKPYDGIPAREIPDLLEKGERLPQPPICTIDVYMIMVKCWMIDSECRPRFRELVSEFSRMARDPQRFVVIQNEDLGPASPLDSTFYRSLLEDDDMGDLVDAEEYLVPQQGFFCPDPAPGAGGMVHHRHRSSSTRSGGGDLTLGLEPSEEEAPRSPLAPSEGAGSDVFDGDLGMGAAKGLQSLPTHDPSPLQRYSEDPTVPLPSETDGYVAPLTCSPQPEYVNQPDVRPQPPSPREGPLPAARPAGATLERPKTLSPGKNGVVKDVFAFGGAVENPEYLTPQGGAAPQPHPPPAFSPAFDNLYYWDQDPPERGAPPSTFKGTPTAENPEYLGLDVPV
- assay.overview: Inhibition of recombinant human ERBB2 (676 to 1255 residues) using poly(Glu:Tyr) as substrate incubated for 40 mins in presence of [gamma-33P-ATP] by radiometric scintillation assay
pIC50: −log10 of the molar value.
observable: pIC50

Query block: Specify reported pIC50 for the compound shown: `NS(=O)(=O)c1ccc(CNc2ccnc(Nc3cccc(CN4CCOCC4)c3)n2)cc1`
Result block: < 5.00

----------
- study.target: UniProt:O43293
- Sequence (O43293 whole entry, the tested form may be a part): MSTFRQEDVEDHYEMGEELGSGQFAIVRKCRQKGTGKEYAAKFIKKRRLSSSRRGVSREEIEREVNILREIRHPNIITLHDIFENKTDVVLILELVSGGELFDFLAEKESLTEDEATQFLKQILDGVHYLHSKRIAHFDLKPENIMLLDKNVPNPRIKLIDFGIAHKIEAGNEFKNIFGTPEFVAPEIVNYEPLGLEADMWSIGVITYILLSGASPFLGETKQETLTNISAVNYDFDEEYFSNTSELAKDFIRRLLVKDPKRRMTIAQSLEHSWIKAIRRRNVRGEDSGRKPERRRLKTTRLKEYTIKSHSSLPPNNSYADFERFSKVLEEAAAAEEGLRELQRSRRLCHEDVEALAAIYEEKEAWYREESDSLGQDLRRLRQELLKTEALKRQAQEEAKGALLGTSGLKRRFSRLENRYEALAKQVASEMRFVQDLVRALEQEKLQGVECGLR
- assay.overview: Inhibition of recombinant human ZIPK (1 to 290 residues) using KKLNRTLSFAEPG as substrate measured after 40 mins in presence of [gamma33P]ATP by radiometric scintillation counting method
pIC50: −log10 of the molar value.
observable: pIC50

Query block: Given `Cc1nn(CC(F)(F)F)cc1Nc1ncc(Br)c(NCc2ccc(S(N)(=O)=O)cc2)n1` , respond with its pIC50.
Result block: < 5.00

----------
- assay.overview: Kinetic solubility of compound in PBS at pH 7.4 incubated for 24 hrs by chemiluminscent nitrogen detection method
- Assay type: physicochemical
- condition: buffer, pH 7.4, 24 h
The following compounds are shown together with reported Kinetic_solubility values.
Your answer is read as µM, so omit the unit and give the number.

In the examples that follow, each entry is paired with its recorded Kinetic_solubility.
| structure.as.smiles | display.unit | Kinetic_solubility |
| --- | --- | --- |
| Brc1cnc(Nc2cccc(CN3CCOCC3)c2)nc1NCCc1c[nH]cn1 | µM | 159 |
| Cc1nn(CC(F)(F)F)cc1Nc1nccc(NCc2ccc(S(N)(=O)=O)cc2)n1 | µM | 167.7 |
| Cc1nn(CC(F)(F)F)cc1Nc1ncc(C2CC2)c(NCCCNC(=O)C2CCC2)n1 | µM | 190.1 |
| O=C(NCCCNc1nc(Nc2cccc(CN3CCOCC3)c2)ncc1C1CC1)C1CCC1 | µM | 155.5 |

Turning to the following compound.
Query block: Give the value of Kinetic_solubility reported for the following: `Cc1nn(CC(F)(F)F)cc1Nc1nccc(NCCCNC(=O)C2CCC2)n1`
Result block: 174.6

----------
- assay.overview: Kinetic solubility of compound in PBS at pH 7.4 incubated for 24 hrs by chemiluminscent nitrogen detection method
- Format: physicochemical
- condition: buffer, pH 7.4, 24 h
observable: Kinetic solubility (µM)
Express the result in µM but write the number alone.

Example results:
| structure.as.smiles | obs.value |
| --- | --- |
| NS(=O)(=O)c1ccc(CNc2ccnc(Nc3cccc(CN4CCOCC4)c3)n2)cc1 | 176 |
| NS(=O)(=O)c1ccc(CNc2ccnc(Nc3cccc(NC(=O)N4CCCC4)c3)n2)cc1 | 147 |
| Cc1nn(CC(F)(F)F)cc1Nc1ncc(Br)c(NCCCNC(=O)C2CCC2)n1 | 40.3 |

Turning to the following compound.
Query block: Give a short answer stating reported Kinetic solubility for `Cc1nn(CC(F)(F)F)cc1Nc1nccc(NCCc2cnc[nH]2)n1` .
Result block: 177

----------
- study.target: Macrophage colony-stimulating factor 1 receptor (Homo sapiens)
- Sequence (P07333 whole entry): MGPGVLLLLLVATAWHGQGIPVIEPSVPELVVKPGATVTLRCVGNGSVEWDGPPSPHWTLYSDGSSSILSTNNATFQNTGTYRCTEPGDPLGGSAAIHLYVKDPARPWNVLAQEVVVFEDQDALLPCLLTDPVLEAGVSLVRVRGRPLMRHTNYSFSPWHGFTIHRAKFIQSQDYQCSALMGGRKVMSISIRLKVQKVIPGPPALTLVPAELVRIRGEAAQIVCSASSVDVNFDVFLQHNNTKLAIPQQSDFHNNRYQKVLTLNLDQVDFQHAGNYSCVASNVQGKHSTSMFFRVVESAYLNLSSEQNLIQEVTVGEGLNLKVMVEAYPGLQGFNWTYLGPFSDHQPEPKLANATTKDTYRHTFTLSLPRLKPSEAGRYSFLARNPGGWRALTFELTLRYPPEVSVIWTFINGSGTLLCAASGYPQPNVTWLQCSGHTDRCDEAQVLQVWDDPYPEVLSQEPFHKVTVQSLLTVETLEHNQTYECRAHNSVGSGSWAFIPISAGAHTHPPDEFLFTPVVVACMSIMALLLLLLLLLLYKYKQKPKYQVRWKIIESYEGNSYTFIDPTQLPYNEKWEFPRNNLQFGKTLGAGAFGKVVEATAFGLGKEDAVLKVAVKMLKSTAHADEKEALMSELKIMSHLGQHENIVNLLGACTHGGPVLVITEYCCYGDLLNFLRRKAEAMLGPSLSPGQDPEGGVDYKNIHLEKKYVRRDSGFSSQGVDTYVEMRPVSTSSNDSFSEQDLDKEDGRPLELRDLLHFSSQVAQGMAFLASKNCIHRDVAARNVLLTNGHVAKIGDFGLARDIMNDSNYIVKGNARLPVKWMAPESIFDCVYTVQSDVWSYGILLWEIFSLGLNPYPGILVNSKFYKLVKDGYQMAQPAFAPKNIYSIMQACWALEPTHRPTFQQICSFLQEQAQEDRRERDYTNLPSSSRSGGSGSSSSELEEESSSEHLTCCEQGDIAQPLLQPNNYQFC
- assay.overview: Inhibition of recombinant human FMS (538 to end residues) using KKKSPGEYVNIEFG as substrate measured after 40 mins in presence of [gamma33P]ATP by radiometric scintillation counting method
Entries and their IC50 values follow.
Field format: number, assumed nM, no unit text.

| structure.as.smiles | IC50 [nM] |
| --- | --- |
| NS(=O)(=O)c1ccc(CNc2ccnc(Nc3cccc(CN4CCOCC4)c3)n2)cc1 | 91 |
| Cc1nn(CC(F)(F)F)cc1Nc1nccc(NCc2ccc(S(N)(=O)=O)cc2)n1 | 233 |

Please find the next compound below.
Query block: Provide measured IC50 on Macrophage colony-stimulating factor 1 receptor (Homo sapiens) for `NS(=O)(=O)c1ccc(CNc2ccnc(Nc3cccc(NC(=O)N4CCCC4)c3)n2)cc1` please.
Result block: 305
